- System: Human alphaherpesvirus 2
- assay summary: Antiviral activity against herpes simplex virus type 2 HSV-2 (F) expressed as viral rating (VR)
- Assay type: functional
observed property: VR
No unit in the answer, only the number.

Lookup: VR / Human alphaherpesvirus 2 / "Nc1ncnc2c1ncn2[C@@H](C=O)O[C@@H](C=O)CO"
0

###

Recorded pEC50, one value per entry.
- Test system: Vaccinia virus
- condition set: read-out: ED50
Reminder that pEC50 is minus the log10 of a molar concentration.

These solved cases illustrate the format of a correct answer.
>  <compound>
Nc1ncnc2c1ncn2C1C(O)C(O)C(CO)C1O (centres undefined)

>  <pEC50>
4.74

$$$$
>  <compound>
Nc1ncnc2c1ncn2[C@@H](C=O)O[C@@H](C=O)CO

>  <pEC50>
6.30

$$$$
>  <compound>
Nc1ncnc2c1ncn2[C@H]1[C@H](O)[C@H](O)[C@@H](CO)[C@@H]1F

>  <pEC50>
4.20

$$$$

Could you now consider this next compound?
Which pEC50 value belongs to C=C1C(CO)C(O)C(O)C1n1cnc2c(N)ncnc21 (centres undefined) ?
6.26
